method: NCI Yeast Anticancer Drug Screen. Data for the mlh1 rad18 strain (AID 175)
measurement_conditions: S. cerevisiae mlh1 rad18 strain growth inhibition; at 5.0 µM (retest, dose inferred, filed as 0.5); stronger effect = higher value
Protocol: Growth inhibition of yeast strains with defined genetic alterations is measured as a screen for potential anti-cancer activity. Selected strains with alterations in DNA damage repair or cell cycle control were exposed to compounds and growth inhibition was measured relative to vehicle treated controls. The strain used in this assay is mlh1 rad18
About 79,000 compounds went through this panel and 15% of them were active in at least one assay; those are over-represented in the sample as a whole.
Entries and their growth inhibition
The response must be a number in % with no trailing unit.

Would you please look over these solved cases?
>>> assay_result("Nc1ccc2c(c1)C(=O)c1cccc(N)c1C2=O")
18
>>> assay_result("CC(=O)Nc1ccc(/C=C(\\C#N)c2ccc(C)cc2)cc1")
34

Could you now look at the following compound, please?
Find the recorded growth inhibition belonging to Cc1cccc2c(C(O)CBr)cc(-c3ccc(Cl)cc3)nc12 (centres undefined) and report it.
1

---

method: NCI Yeast Anticancer Drug Screen. Data for the CLN2oe strain (AID 163);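 also: 0% = growth of vehicle-only control cultures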
measurement_conditions: S. cerevisiae CLN2oe strain, at 33.0 µM, stronger effect = higher value
Procedure: Growth inhibition of yeast strains with defined genetic alterations is measured as a screen for potential anti-cancer activity. Selected strains with alterations in DNA damage repair or cell cycle control were exposed to compounds and growth inhibition was measured relative to vehicle treated controls. The strain used in this assay is CLN2oe
Compounds without any hit were thinned out: in the full panel of roughly 79,000, 15% have a hit.
Think of 20% as a floor: if growth inhibition stands on it or above, it is Criterion met; beneath it, Criterion not met.

Recorded results for 8 molecules are shown here.
>>> discrete_label("CN(N=O)N1C(=O)SCC(c2ccccc2)(c2ccccc2)C1=O")
"Criterion not met"
>>> discrete_label("CN(C)Cc1cc(N=Nc2ccc(Cl)cc2)cc(CN(C)C)c1O")
"Criterion met"
>>> discrete_label("c1ccc2c(c1)sc1cc3ccncc3cc12")
"Criterion met"
>>> discrete_label("COc1cc2ccc(/C=C\\[N+](=O)[O-])cc2cc1OC")
"Criterion met"
>>> discrete_label("CC/C(=C(\\c1ccccc1)c1ccc(OCCN(C)C)cc1)c1ccccc1")
"Criterion met"
>>> discrete_label("COc1ccc(/C(C)=N/OC(=O)c2c(-c3ccccc3Cl)noc2C)cc1CN1CCOCC1")
"Criterion not met"
>>> discrete_label("NC(=NCc1ccccc1)N/N=C\\c1ccnc2ccccc12")
"Criterion met"
>>> discrete_label("Cc1cc(S(=O)(=O)/N=C(/NN)NNc2cccc(C(F)(F)F)n2)c(S)cc1Cl")
"Criterion not met"

Decide: is the reported value of growth inhibition for O=C(NNc1ccnc2cc(Cl)ccc12)/C(=C\c1ccccc1Cl)NC(=O)c1ccccc1 equal to or greater than 20%?
Criterion met

Decide: is the reported value of growth inhibition for CCCCCCCCCCCCCCCCCCN(C)CC(COP(=O)([O-])OCC[N+](C)(C)C)OC (centres undefined) equal to or greater than 20%?
Criterion met

Decide: is the reported value of growth inhibition for CCCCCCCCCCCC1=C(O)C(=O)C=C(O)C1=O equal to or greater than 20%?
Criterion met

Decide: is the reported value of growth inhibition for O=C(NC(Nc1ccc(F)c(Cl)c1)(C(F)(F)F)C(F)(F)F)C(C(F)(F)F)C(F)(F)F equal to or greater than 20%?
Criterion met

Decide: is the reported value of growth inhibition for CC(=O)Cc1ccc[cH-]1.[Fe+2].c1cc[cH-]c1 equal to or greater than 20%?
Criterion met

Decide: is the reported value of growth inhibition for Cn1c2ccccc2c(=O)c2cc(NC(=O)CCCCC(=O)Nc3ccc4c(c3)c(=O)c3ccccc3n4C)ccc21 equal to or greater than 20%?
Criterion not met
